target.entity: Metabotropic glutamate receptor 8 (Rattus norvegicus)
test.description: mGlu8-mediated intracellular calcium response modulators – cell-based, HEK293 rmGlu8, Gqi9 chimera, Fluo-4 calcium, counter-screen for GIRK activator project, confirmation (AID 623869)
condition.notes: HEK293 rmGlu8/Gqi9 calcium flux, Fluo-4 fluorescence; glutamate at EC20 added after compound
Screen size: about 2,100 compounds; about 75 (4%) were called active.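 Rule for the calls: active = calcium fluorescence trace judged by eye to show a response, as agonist, enhancer of the glutamate response, or inhibitor; inactive = trace judged by eye to show no response.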 Only a selection was taken, and actives are over-represented in it overall.
Outcome field: choose from true (1) = active, false (0) = inactive

{"columns": ["compound", "category"],
 "data": [
  ["CCOC(=O)c1sc(NC(=S)NC(=O)c2ccco2)nc1C", "false (0)"],
  ["CCCN(CCC)C(=S)NC(=O)c1ccc(-c2ccccc2)cc1", "false (0)"],
  ["O=S(=O)(c1ccc(-c2nnc(SCc3nnc(-c4ccccc4)o3)o2)cc1)N1CCCC1", "false (0)"],
  ["O=c1c2ccccc2[nH]c(=S)n1CCCN1CCN(C2CCCCC2)CC1", "false (0)"],
  ["O=C(Nc1nnc(-c2ccc3c(c2)CCCC3)o1)c1ccccc1", "false (0)"],
  ["Cc1ccc(C)c(NC(=S)NNC(=O)c2cc3c(s2)CCC(C)C3)c1 (configuration not stated)", "false (0)"]
]}

Qu. Test call, this compound: COC(=O)CSC1=NS(=O)(=O)c2ccccc21
Ans. true (1)

Qu. Write down the call the test reported for this compound. Item: CCc1cccc(NC(=O)CSC2=NS(=O)(=O)c3ccccc32)c1
Ans. false (0)

Qu. Please state the recorded outcome for this compound: CCOC(=O)c1sc2ncnc(NCc3ccco3)c2c1C
Ans. true (1)

Qu. Test call for this compound, please: Cc1sc2ncnc(SCc3ccco3)c2c1C
Ans. false (0)

Qu. Hey, what did the test say about O=C(NC(=S)Nc1ccc(N2CCCCC2)cc1)c1ccco1 ?
Ans. false (0)

Qu. Status in this test for COC(=O)CSc1nc2ncccc2[nH]1 ?
Ans. false (0)

###

target.entity: Metabotropic glutamate receptor 8 (Rattus norvegicus)
test.description: mGlu8-mediated intracellular calcium response modulators – cell-based, HEK293 rmGlu8, Gqi9 chimera, Fluo-4 calcium, counter-screen for GIRK activator project, confirmation (AID 623869)
condition.notes: HEK293 rmGlu8/Gqi9 calcium flux, Fluo-4 fluorescence; glutamate at EC20 added after compound
Among all 2,100 compounds or so, about 75 (4%) were called active.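 Rule for the calls: active = calcium fluorescence trace judged by eye to show a response, as agonist, enhancer of the glutamate response, or inhibitor; inactive = trace judged by eye to show no response.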 Shown is part of a subset that was picked to be rich in actives.
Respond using exactly one of the listed classes: active, inactive

Use the examples below as a reference point.
{"columns": ["molecule", "category"],
 "data": [
  ["CCCn1c(=O)c2ccccc2n2c(SCC(=O)N3CCc4ccccc4C3)nnc12", "inactive"],
  ["Cc1cc(NC(=O)Nc2ccccc2)n(-c2ccccc2)n1", "inactive"],
  ["Cc1oc(-c2ccccc2)nc1CS(=O)CC(=O)O (centres undefined)", "inactive"],
  ["COC(=O)C(C)N(C(=O)c1cccc2ccccc12)c1c(C)cccc1C (centres undefined)", "inactive"],
  ["Cc1ccc(N=C2CCCN2Cc2ccccc2)c(C#N)c1", "inactive"]
]}

Qu. Fill in: this test's call for Cc1cc([N+](=O)[O-])ccc1-c1ccc(C2Nc3ccccc3C(=O)N2O)o1 (centres undefined) is ___
Ans. active
